- System: UACC-257
- assay: NCI tumour cell line growth inhibition, 48 h
The source made the active and inactive calls. No stated cut-off is given here; in the data, active = GI50 up to about 1.1 µM and inactive = higher.
Exercise: state measured GI50 for each of the compounds provided.

Query string: Jot down GI50 (UACC-257) of COC(=O)C1(C(=O)OC)N=C(C)OC1C(C)C (stereo not given) .
Result string: > 100 µM (inactive)

Query string: Jot down GI50 (UACC-257) of CN(C)CCCOCCn1c2c(c3ccccc31)CCCC2 .
Result string: 18.2 µM (inactive)

Query string: Jot down GI50 (UACC-257) of CC(=O)Nc1ccc(/N=C2\C(c3ccccc3)=C(SC3=C(c4ccccc4)/C(=N\c4ccc(NC(C)=O)cc4)c4ccccc43)c3ccccc32)cc1 .
Result string: 46 µM (inactive)

Query string: Jot down GI50 (UACC-257) of Cc1cc(=O)oc2c(C)c(O)ccc12 .
Result string: > 100 µM (inactive)

Query string: Jot down GI50 (UACC-257) of C=CCOc1cc2c(cc1C(C)c1ccc(OC)cc1)OCO2 (stereo not given) .
Result string: 0.263 µM (active)

Query string: Jot down GI50 (UACC-257) of COC(=O)/C(=N\NC(N)=O)C(C(=O)C(=O)Nc1ccccc1C(=O)OC)c1nc2ccc(C(=O)c3ccccc3)cc2nc1O (stereo not given) .
Result string: > 100 µM (inactive)

Query string: Jot down GI50 (UACC-257) of CC(C)(C)C1=CC(=C2C=Cc3cc(O)ccc3O2)C=C(C(C)(C)C)C1=O .
Result string: 1.57 µM (inactive)

Query string: Jot down GI50 (UACC-257) of O=C1Cc2c([nH]c3ccc(Br)cc23)-c2cc(O)c(O)cc2N1 .
Result string: > 100 µM (inactive)

Query string: Jot down GI50 (UACC-257) of CCCCS/C(=C(/C#N)C(N)=O)c1cc2c([nH]1)CCCC2 .
Result string: 14.3 µM (inactive)

Query string: Jot down GI50 (UACC-257) of COc1cc(O)c2c(=O)cc(C3(O)C=CC(=O)C=C3)oc2c1 .
Result string: 0.489 µM (active)

Query string: Jot down GI50 (UACC-257) of CC(=O)NS(=O)(=O)c1ccc(NCc2cccc3c(=O)c4ccc(Cl)cc4oc23)cc1 .
Result string: > 56.6 µM (inactive)

Query string: Jot down GI50 (UACC-257) of CC(=O)OCCCCn1nncc1Cn1ccc(=O)n(Cc2cnnn2CCCCOC(C)=O)c1=O .
Result string: > 100 µM (inactive)

Query string: Jot down GI50 (UACC-257) of Cc1cc(=O)oc2c(CN3CCCCC3)c(O)ccc12 .
Result string: > 100 µM (inactive)

Query string: Jot down GI50 (UACC-257) of COc1cc(Br)c(CC2=NCCc3cc(OC)c(OC)cc32)cc1OC .
Result string: 16.6 µM (inactive)

Query string: Jot down GI50 (UACC-257) of C/C(=N\NC(=S)N1CCN(c2ccccn2)CC1)c1cccc2cccnc12 .
Result string: 2.84 µM (inactive)

Query string: Jot down GI50 (UACC-257) of O=C1CSC(c2cccc(Oc3ccccc3)c2)N1c1cccc(Cl)c1Cl (stereo not given) .
Result string: 24.4 µM (inactive)

Query string: Jot down GI50 (UACC-257) of CC(C)(C)C1CCC(=O)C(C(O)CC2CC(=O)N(c3ccccc3)C(=O)C2)C1 (stereo not given) .
Result string: > 100 µM (inactive)

Query string: Jot down GI50 (UACC-257) of C=C(C)[C@@H]1CC[C@@H]2C(=CC[C@]3(C)C([C@H](C)CC/C=C(/C)C(=O)O)CC[C@@]23C)[C@@]1(C)CCC(=O)O (stereo not given in full) .
Result string: 23.8 µM (inactive)

Query string: Jot down GI50 (UACC-257) of CCCC1C[C@H]2CCCCN2[C@H]2CCCN12 (stereo not given in full) .
Result string: > 100 µM (inactive)

Query string: Jot down GI50 (UACC-257) of N#Cc1c(-c2ccc([N+](=O)[O-])cc2)cc(-c2ccc(Nc3ccnc4cc(Cl)ccc34)cc2)nc1N .
Result string: 26.5 µM (inactive)

---

Exercise: state measured GI50 for each of the molecules provided.
- Tested on: HOP-62
- assay: NCI tumour cell line growth inhibition, 48 h
Activity calls are given as the source filed them. Cut-off read from the data, not from the text of the source: active = GI50 up to about 1.1 µM and inactive = higher.

Query string: Tell me GI50 reported for O=C(NN=C1NCCN1)c1ccco1
Result string: > 100 µM (inactive)

Query string: Tell me GI50 reported for COc1ccc(C[C@]23CCC(=O)N2CCc2cc(OC)c(O)cc23)cc1O
Result string: > 100 µM (inactive)

Query string: Tell me GI50 reported for O=C(Nc1nc2ccccc2n1Cc1ccc(Cl)cc1)NC12CC3CC(CC(C3)C1)C2
Result string: 17.1 µM (inactive)

Query string: Tell me GI50 reported for CC(=O)OC1CC2C(C)(C)C(=O)C=C[C@]2(C)C2CCC3(C)C(c4ccoc4)C(=O)[C@H]4O[C@]43[C@]12C (some centres undefined)
Result string: 22.6 µM (inactive)

Query string: Tell me GI50 reported for CC(=O)OC(C)(C)CCC(=O)[C@](C)(O)[C@H]1[C@H](O)C[C@@]2(C)[C@@H]3CCc4c(cc(OC5OC(CO)C(O)C(O)C5O)c(O)c4C)C3(C)C(=O)C[C@]12C (some centres undefined)
Result string: > 100 µM (inactive)

Query string: Tell me GI50 reported for O=C1CSC(c2cccc(Oc3ccccc3)c2)N1c1cccc(Cl)c1Cl (centres undefined)
Result string: 41.4 µM (inactive)

Query string: Tell me GI50 reported for N=C(N)NS(=O)(=O)c1ccc(NNC(=O)c2cccc3c(O)c4ccccc4nc23)cc1
Result string: 22 µM (inactive)

Query string: Tell me GI50 reported for Cc1ccnc(NS(=O)(=O)c2ccc(NC3=CC(=O)C(=O)c4ccccc43)cc2)n1
Result string: > 100 µM (inactive)

Query string: Tell me GI50 reported for C1CCNCC1.O=C1NC(=S)N/C1=C/c1ccccc1O
Result string: > 100 µM (inactive)

---

- System: EKVX
- assay: NCI tumour cell line growth inhibition, 48 h
The source made the active and inactive calls. Cut-off read from the data, not from the text of the source: active = GI50 up to about 1.1 µM and inactive = higher.
Exercise: state measured GI50 for each of the compounds provided.

Query string: Tell me GI50 reported for NC1=NN(c2ccccc2)C(=O)C1/C(=N\NC(=O)c1cc2ccccc2cc1O)C(=O)Nc1cccc(C(F)(F)F)c1 (configuration not stated)
Result string: 35.6 µM (inactive)

Query string: Tell me GI50 reported for COc1cc(O)c2c(=O)c(OC)c(-c3ccc4c(c3)OCO4)oc2c1OC
Result string: 39 µM (inactive)

Query string: Tell me GI50 reported for COc1ccc(CN(Cc2ccc(OC)cc2)C(=O)CC2(O)C=CCC2)cc1 (configuration not stated)
Result string: 46.1 µM (inactive)

Query string: Tell me GI50 reported for COc1cc(-c2ccc(NC(=O)SCCC(=O)O)cc2OC)ccc1NC(=O)SCCC(=O)O
Result string: > 100 µM (inactive)

Query string: Tell me GI50 reported for O=C1C(NCCO)=C(N2CC2)C(=O)C(NCCO)=C1N1CC1
Result string: > 81.1 µM (inactive)

Query string: Tell me GI50 reported for O=C(Nc1nc2ccccc2n1Cc1ccc(Cl)cc1)NC12CC3CC(CC(C3)C1)C2
Result string: 32.7 µM (inactive)

Query string: Tell me GI50 reported for COc1ccc2c(c1OC)C[C@@H]1c3c(cc4c(c3-2)OCO4)CCN1C
Result string: 20.7 µM (inactive)

---

- Tested on: SN12C
- assay: NCI tumour cell line growth inhibition, 48 h
Active and inactive are the calls of the source. No stated cut-off is given here; in the data, active = GI50 up to about 1.1 µM and inactive = higher.
Exercise: state measured GI50 for each of the molecules provided.

Query string: Tell me GI50 reported for CC(C)CC(NC(=O)c1cccc(O)c1O)C(=O)NCc1cc(CNC(=O)C(CC(C)C)NC(=O)c2cccc(O)c2O)cc(CNC(=O)C(CC(C)C)NC(=O)c2cccc(O)c2O)c1 (centres undefined)
Result string: 12.8 µM (inactive)

Query string: Tell me GI50 reported for COc1ccc(N2C(=O)[C@H]3CC(C)c4c([nH]c5ccccc45)[C@H]3C2=O)cc1 (some centres undefined)
Result string: 6.38 µM (inactive)

Query string: Tell me GI50 reported for CCCCN(CC)C(=O)C(=O)C1C(=O)Nc2ccccc2[S+]1[O-] (centres undefined)
Result string: > 100 µM (inactive)

Query string: Tell me GI50 reported for N#Cc1c(Cl)c(C=O)c(=O)n2c1[nH]c1ccccc12
Result string: 61.8 µM (inactive)

Query string: Tell me GI50 reported for COC(=O)c1ccccc1/C=C1/Cc2ccccc2C1=O
Result string: 17.4 µM (inactive)

Query string: Tell me GI50 reported for COc1ccc(/C=C/C(=O)c2ccc(OC(=O)/C=C/c3ccccc3)cc2)cc1
Result string: 26.6 µM (inactive)

Query string: Tell me GI50 reported for O=C1C2C3CC4C5C3C1C5C1(SCCS1)C42 (centres undefined)
Result string: > 100 µM (inactive)

Query string: Tell me GI50 reported for CC(C)CCC[C@@H](C)C1CCC2[C@@H]3CC=C4C[C@@H](C(=O)NCCN(C)C)CC[C@]4(C)C3CC[C@@]21C (some centres undefined)
Result string: 19.4 µM (inactive)

Query string: Tell me GI50 reported for Cc1ccc(NC(=O)CC/C(CC(=O)c2ccc(Cl)cc2)=N\NC(=O)C(=O)NN)cc1C
Result string: > 100 µM (inactive)
